The reported numbers originate from patent US4530903A.

Target: L-2-hydroxy-4-methylpentanoic acid-dehydrogenase (Weissella confusa, UniProt P14295)
Construct: the cells harvesting by centrifugation, solubilizing the product in a suspension buffered to pH 7 and obtaining the enzyme from the extract; made in house; host or cells: Lactobacillus confusus DSM 20196 (natural producer, not recombinant)
Sequence (P14295 1-310): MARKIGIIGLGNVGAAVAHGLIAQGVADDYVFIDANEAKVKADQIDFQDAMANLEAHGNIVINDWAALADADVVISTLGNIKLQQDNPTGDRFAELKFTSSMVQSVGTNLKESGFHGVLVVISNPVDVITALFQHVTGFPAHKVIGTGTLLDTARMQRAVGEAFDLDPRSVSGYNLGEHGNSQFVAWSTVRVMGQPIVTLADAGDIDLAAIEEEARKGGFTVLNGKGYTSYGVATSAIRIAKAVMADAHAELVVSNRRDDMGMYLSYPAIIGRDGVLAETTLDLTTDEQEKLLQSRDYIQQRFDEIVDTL
Assay: Dehydrogenation of 2-hydroxycarboxylic acids to 2-ketocarboxylic acids (Example 1), NADH formation at 340 nm
Assay type: biochemical, Lactobacillus confusus
Conditions: test concentration 10 mM substrate, same enzyme solution
Kindly state relative activity for each of the entries shown.
Just the number please, in U/ml, no unit attached.

Form field relative activity, entry CCCC(O)C(=O)O (racemic) [DL-2-Hydroxypentanoic acid] : 31.2

Form field relative activity, entry CC(C)C[C@H](O)C(=O)O [L-2-Hydroxy-4-methylpentanoic acid] : 49.7

Form field relative activity, entry CC(C)CC(O)C(=O)O (racemic) [DL-2-Hydroxy-4-methylpentanoic acid] : 39.8

Form field relative activity, entry CSCCC(O)C(=O)O (racemic) : 2.7

Form field relative activity, entry CCCCC(O)C(=O)O (racemic) [DL-2-Hydroxyhexanoic acid] : 39.5
